target desc: UniProt:P43116
Please use 1.0 for IC50 under 0.02 µM and 0.0 for everything else, ties included.

Please review the following examples before continuing.
[[record]]
molecule = "COc1cc(F)cc2c1cc(C)n2CCNc1cc(-c2ccc(-c3cnc(N)o3)cc2)ncn1 [compound 572]"
class_assignment = 1.0

[[record]]
molecule = "CCCc1cc(-c2cc(NCCn3c(C)cc4c(OC)ccc(F)c43)ncn2)cc(OC)c1C(=O)O [compound 619]"
class_assignment = 1.0

[[record]]
molecule = "CCNc1cc(-c2cc(NCCn3c(C)cc4c(OC)cccc43)ncn2)cc(F)c1C(=O)O [compound 398]"
class_assignment = 1.0

[[record]]
molecule = "COc1cc(F)cc2c1cc(C)n2CCNc1cc(-c2ccc(-c3ccccn3)cc2)ncn1 [compound 727]"
class_assignment = 0.0

[[record]]
molecule = "COc1cc(Cl)cc2c1cc(C)n2CCNc1cc(-c2ccc(C(=O)O)c(CC(C)C)c2)ncn1 [compound 529]"
class_assignment = 1.0

[[record]]
molecule = "COc1ccc(F)c2c1cc(C)n2CCNc1cc(-c2ccc(-c3n[nH]cc3C(=O)O)cc2)ncn1 [compound 593]"
class_assignment = 0.0

[[record]]
molecule = "Cc1cc2ccccc2n1CCNc1cc(-c2ccc(-c3nccs3)cc2)ncn1 [Example 764]"
class_assignment = 1.0

[[record]]
molecule = "COc1ccc(F)c2c1cc(C)n2CCNc1cc(-c2ccc(C(=O)O)c(CC(C)C)c2)ncn1 [compound 537]"
class_assignment = 0.0

[[record]]
molecule = "CCCc1cc(-c2cc(NCCn3c(C)cc4c(OC)ccc(Cl)c43)ncn2)ccc1C(=O)O [compound 442]"
class_assignment = 1.0

[[record]]
molecule = "CCOc1cc(-c2cc(NCCn3c(C)cc4c(C)ccc(F)c43)ncn2)cc(F)c1C(=O)O [compound 435]"
class_assignment = 1.0


Here's an entry: COc1cc(F)cc2c1cc(C)n2CCNc1cc(-c2cc(C(F)(F)F)c(C(=O)O)s2)nc(C)n1 [compound 541] . Is its IC50 below 0.02 µM?
1.0

---

target desc: PTGER2 (EP2) (Homo sapiens (Human))
Sequence (P43116 whole entry): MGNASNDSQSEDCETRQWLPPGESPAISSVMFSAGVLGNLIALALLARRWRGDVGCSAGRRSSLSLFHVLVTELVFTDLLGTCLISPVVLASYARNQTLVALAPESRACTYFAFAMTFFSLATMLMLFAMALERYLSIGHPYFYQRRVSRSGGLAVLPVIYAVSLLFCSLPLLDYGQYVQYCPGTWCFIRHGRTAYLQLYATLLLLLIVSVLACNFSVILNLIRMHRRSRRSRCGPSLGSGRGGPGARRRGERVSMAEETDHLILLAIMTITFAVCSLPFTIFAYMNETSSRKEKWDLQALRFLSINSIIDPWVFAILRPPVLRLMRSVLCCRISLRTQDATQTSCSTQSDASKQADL
assay overview: hEP2 b-arrestin assay (PathHunter HEK 293 PTGER2 b-arrestin cells)
Format: cell-based
conditions used: antagonistic activity on hEP2; mean where measured multiple times
pIC50: −log10 of the molar value.
Quick rule for you: pIC50 at 8 or higher means YES, lower means NO.

Would you please look over these solved cases?
[[record]]
compound = "COc1cccc2c1cc(C)n2CCNc1cc(-c2ccc(-c3noc(C)n3)cc2)ncn1 [compound 179]"
class_assignment = "NO"

[[record]]
compound = "Cc1ccc(F)c2c1cc(C)n2CCNc1cc(-c2ccc3c(c2)CCN3)ncn1 [compound 11]"
class_assignment = "NO"

[[record]]
compound = "CCOc1cc(-c2cc(NCCn3c(C)cc4c(OC)ccc(F)c43)ncn2)ccc1CO [compound 159]"
class_assignment = "YES"

[[record]]
compound = "COc1cccc2c1cc(C)n2CCNc1cc(-c2cc(Cl)c(C(=O)O)s2)ncn1 [compound 23]"
class_assignment = "YES"

[[record]]
compound = "Cc1cc(F)cc2c1cc(C)n2CCNc1cc(-c2ccc(-c3ccon3)cc2)ncn1 [compound 94]"
class_assignment = "NO"

[[record]]
compound = "Cc1ccc(F)c2c1cc(C)n2CCNc1cc(-c2ccc(C(=O)O)c(CCC(C)C)c2)ncn1 [compound 369]"
class_assignment = "NO"

[[record]]
compound = "CCOc1cc(-c2cc(NCCn3c(C)cc4c(F)ccc(F)c43)ncn2)ccc1C(=O)O [compound 154]"
class_assignment = "YES"

[[record]]
compound = "CCOc1cc(-c2cc(NCCn3c(C)cc4c(Cl)ccc(F)c43)ncn2)sc1C(=O)O [compound 240]"
class_assignment = "YES"

[[record]]
compound = "CCOc1cc(-c2cc(NCCn3c(C)cc4c(OC)cccc43)ncn2)sc1C(=O)O [compound 216]"
class_assignment = "YES"

[[record]]
compound = "Cc1cc(F)cc2c1cc(C)n2CCNc1cc(-c2ccc(-c3ccns3)cc2)ncn1 [compound 84]"
class_assignment = "NO"


Given the entry CCOc1cc(-c2cc(NCCn3c(C)cc4c(Cl)cc(F)cc43)ncn2)sc1C(=O)O [compound 239] , answer whether its pIC50 meets or surpasses 8.
YES

// inclusive: pIC50 at least 8? input: CCCc1cc(-c2cc(NCCn3c(C)cc4c(CC)ccc(F)c43)ncn2)ccc1C(=O)O [compound 338]
NO

Is pIC50 for COc1cc(F)cc2c1cc(C)n2CCNc1cc(-c2ccc(C(=O)O)c(C3CC3)c2)ncn1 [compound 382] at or above 8?
NO

pIC50 >= 8 for COc1ccc(F)c2c1cc(C)n2CCNc1cc(-c2ccc3c(c2)CC(=O)N3)ncn1 [compound 91] ?
NO
